Data provenance: ChEMBL document CHEMBL1201862

- Tested on: SW-620
- PROCEDURE_TEXT: NCI tumour cell line growth inhibition, 48 h
Activity calls are given as the source filed them. Cut-off read from the data, not from the text of the source: active = GI50 up to about 1.1 µM and inactive = higher.
The entries below come with measured GI50 values attached.

In the examples that follow, each entry is paired with its recorded GI50.
{"COMPOUND": "O=C1/C(=C/c2ccccc2)CN(C(=O)/C=C/c2ccccc2)C/C1=C\\c1ccccc1", "TARGET_OF_ASSAY": "SW-620", "QUANTITY_KIND": "GI50", "RESULT": "2.39 µM (inactive)"}
{"COMPOUND": "Nc1ccc(C2=Nc3ccccc3SC(c3ccccc3O)C2)cc1 (stereo unspecified)", "TARGET_OF_ASSAY": "SW-620", "QUANTITY_KIND": "GI50", "RESULT": "33.7 µM (inactive)"}
{"COMPOUND": "NC(CCC(=O)NC(CSC(=O)N(O)c1ccccc1)C(=O)NCC(=O)O)C(=O)O (stereo unspecified)", "TARGET_OF_ASSAY": "SW-620", "QUANTITY_KIND": "GI50", "RESULT": "> 1000 µM (inactive)"}

# GI50 lookup, item O=C1OC(c2ccccc2)=N/C1=C\c1ccc(Br)cc1 > 100 µM (inactive)

# GI50 lookup, item COc1ccccc1N1C(=O)CSC1c1cc(OC)c(OC)c(OC)c1 (stereo unspecified) 27.5 µM (inactive)

# GI50 lookup, item Nc1ccc(C(=O)c2cn(CCN3CCOCC3)c3ccccc23)c2ccccc12 30.8 µM (inactive)

---

- Test system: SK-MEL-2
- PROCEDURE_TEXT: NCI tumour cell line growth inhibition, 48 h
The source made the active and inactive calls. Cut-off read from the data, not from the text of the source: active = GI50 up to about 1.1 µM and inactive = higher.
The entries below come with measured GI50 values attached.

In the examples that follow, each entry is paired with its recorded GI50.
{"MOLECULE": "CC(C)N(C(=O)C12C3C4C1C1C4(C#N)C3C12C(=O)O)C(C)C (stereo not drawn)", "RESULT": "> 100 µM (inactive)"}
{"MOLECULE": "O=C1CN2C(Cl)(Cl)C2(c2ccccc2)c2cc(Cl)ccc2N1CC(F)(F)F (stereo not drawn)", "RESULT": "24 µM (inactive)"}

As a next step, examine the molecule that follows.
# GI50 lookup, item CCOC(=O)C1C(=O)C(=O)N2CCc3c([nH]c4ccccc34)C12 (stereo not drawn) > 100 µM (inactive)

---

- Tested on: UACC-62
- PROCEDURE_TEXT: NCI tumour cell line growth inhibition, 48 h
Calls of active or inactive are those of the source. Cut-off read from the data, not from the text of the source: active = GI50 up to about 1.1 µM and inactive = higher.
The entries below come with measured GI50 values attached.

# GI50 lookup, item CC(C)C(CCOS(=O)(=O)O)CCC(C)[C@H]1[C@@H](O)C(O)C2[C@]3(O)C[C@@H](O)C4(O)C[C@@H](O)CC[C@]4(C)C3CC[C@@]21C (stereo partly drawn) > 100 µM (inactive)

---

- System: NCI-H460
- PROCEDURE_TEXT: NCI tumour cell line growth inhibition, 48 h
Active and inactive are the calls of the source. No stated cut-off is given here; in the data, active = GI50 up to about 1.1 µM and inactive = higher.
The categories you may choose from are yes (1) = active, no (0) = inactive

{"MOLECULE": "CC(C)C(C/C=C1\\CC(CO)(COC(=O)C2CCCCC2)OC1=O)C(C)C (centres undefined)", "CAT": "no (0)"}
{"MOLECULE": "[O-][S+]1c2ccccc2N=C(c2ccc3ccccc3c2)CC1c1ccccc1 (centres undefined)", "CAT": "no (0)"}
{"MOLECULE": "C=CCN(c1cc(OC)c2[nH]c(C(=O)OCC)c(C)c2c1[N+](=O)[O-])S(C)(=O)=O", "CAT": "no (0)"}
{"MOLECULE": "COc1ccc(/C(Cl)=C(\\C=O)c2ccc(Br)cc2)cc1OC", "CAT": "no (0)"}
{"MOLECULE": "COC1CC(COCc2ccccc2)CC(OC)O1 (centres undefined)", "CAT": "no (0)"}
{"MOLECULE": "C[C@]12CC[C@H]3[C@@H](CC[C@]4(O)C[C@@H](O)CC[C@]34C=O)[C@@]1(O)CC[C@@H]2C1=CC(=O)OC1", "CAT": "yes (1)"}
{"MOLECULE": "Cc1ccc(/C=C(\\C#N)c2ccccc2)cc1", "CAT": "no (0)"}
{"MOLECULE": "O=C(C/C(=N/O)C(=O)NC1=C(Cl)C(=O)c2ccccc2C1=O)CC(c1ccccc1)c1c(O)c2ccccc2oc1=O (centres undefined)", "CAT": "no (0)"}

Short answer needed: outcome of this test for COc1cc2c(cc1OC)C(=O)C(C1=C(SC(=N)N)C(=O)c3cc(OC)c(OC)cc31)C2 (centres undefined) ? no (0)

Short answer needed: outcome of this test for O=C1O[B-](c2ccccc2)(c2ccccc2)[NH2+]C1CS (centres undefined) ? no (0)

Short answer needed: outcome of this test for CCOC(=O)C(CO)c1nc2c([nH]c1=O)c(=O)n(C)c(=O)n2C (centres undefined) ? no (0)

Short answer needed: outcome of this test for O=C(c1ccsc1)c1nccc2c1cnc1ccccc12 ? no (0)

Short answer needed: outcome of this test for COc1ccc(CCNC(=O)Cc2ccccc2CCO)cc1OC ? no (0)

Short answer needed: outcome of this test for CCOC(=O)c1c2c(n(-c3ccc(OC)cc3)c1C)C(=O)C(=O)c1ccccc1-2 ? no (0)

Short answer needed: outcome of this test for COC(=O)c1cnn2c1ccc1ccccc12 ? no (0)

Short answer needed: outcome of this test for C=CCN1C(=O)CS/C1=N\NC(=O)CSc1nc2ccccc2c(=O)n1CC ? no (0)

---

The entries below come with measured GI50 values attached.
- Tested on: SNB-19
- PROCEDURE_TEXT: NCI tumour cell line growth inhibition, 48 h
Calls of active or inactive are those of the source. Rule as the data show it: active = GI50 up to about 1.1 µM and inactive = higher.

In the examples that follow, each entry is paired with its recorded GI50.
{"COMPOUND": "C[N+](C)(C)CC1CCCC1=O (stereo not given)", "GI50": "20.2 µM (inactive)"}
{"COMPOUND": "Cn1c2c(c3c(=O)[nH]ncc31)CCc1ccccc1-2", "GI50": "45.8 µM (inactive)"}
{"COMPOUND": "Clc1ccc(Nc2nn3c(CCCCCCCCc4nnc5sc(Nc6ccc(Cl)cc6)nn45)nnc3s2)cc1", "GI50": "25.1 µM (inactive)"}
{"COMPOUND": "NC(CCC(=O)NC(CSC(=O)N(O)c1ccccc1)C(=O)NCC(=O)O)C(=O)O (stereo not given)", "GI50": "> 1000 µM (inactive)"}
{"COMPOUND": "O=C(O)COc1cc(-c2ccccc2)nc2ccc(F)cc12", "GI50": "> 100 µM (inactive)"}
{"COMPOUND": "CC1(C)CC(=O)C2=C(C1)OC1=C(C(=O)CC(C)(C)C1)C2CC(c1ccccc1)c1ccc(O)c(O)c1O (stereo not given)", "GI50": "> 10 µM (inactive)"}

Request body: readout GI50, system SNB-19, query COc1cc(C2c3cc4c(cc3OC(N3CCOCC3)C2C)OCO4)cc(OC)c1O (stereo not given) . Return the value. 22.3 µM (inactive)

Request body: readout GI50, system SNB-19, query O=C(O)c1cccc(F)c1C(=O)c1ccc2ccccc2c1 . Return the value. > 100 µM (inactive)

Request body: readout GI50, system SNB-19, query Cc1ccc2nc3c(C(=O)NCCN(C)C)cccc3cc2c1 . Return the value. 2.04 µM (inactive)

Request body: readout GI50, system SNB-19, query Cc1c(O)c(=O)ccn1CCN . Return the value. > 100 µM (inactive)

Request body: readout GI50, system SNB-19, query Nc1nc(Cl)cc(NCC2(CO)CC(CCCCc3ccccc3)C2)n1 (stereo not given) . Return the value. > 100 µM (inactive)

Request body: readout GI50, system SNB-19, query O=C1CCCNn2c(nc3ncccc3c2=O)N1 . Return the value. > 100 µM (inactive)

Request body: readout GI50, system SNB-19, query O=C(C#Cc1ccccc1)Nc1ccccc1CC(c1c[nH]c2ccccc12)c1c[nH]c2ccccc12 . Return the value. 26 µM (inactive)

Request body: readout GI50, system SNB-19, query CCN(CC)/[N+]([O-])=N/OS(=O)(=O)N(C)C . Return the value. > 100 µM (inactive)

Request body: readout GI50, system SNB-19, query CC(=O)OC1CCN(C(=O)c2ccccc2)CC1CC1(c2cc3ccccc3[nH]2)OCCO1 (stereo not given) . Return the value. > 100 µM (inactive)

Request body: readout GI50, system SNB-19, query C=CCN1C(=O)CS/C1=N\NC(=O)CSc1nc2ccccc2c(=O)n1CC . Return the value. > 100 µM (inactive)

Request body: readout GI50, system SNB-19, query CCOC(=O)Cn1nc2ccc(Nc3nc4ccccc4nc3C(=O)OCC)cc2n1 . Return the value. 34 µM (inactive)

Request body: readout GI50, system SNB-19, query C[C@]12CC[C@H]3[C@@H](CC[C@]4(O)C[C@@H](O)CC[C@]34C=O)[C@@]1(O)CC[C@@H]2C1=CC(=O)OC1 . Return the value. 1.58 µM (inactive)

Request body: readout GI50, system SNB-19, query Cc1nc2c(cc1C(=O)N/N=C/c1ccc([N+](=O)[O-])cc1)c(=O)n(C)c(=O)n2C . Return the value. 21.4 µM (inactive)

Request body: readout GI50, system SNB-19, query CC(C)OC(=O)NNc1cc(Cl)ccc1Cl . Return the value. > 100 µM (inactive)

Request body: readout GI50, system SNB-19, query Cc1cc(S(=O)(=O)O)c(NC(=O)c2oc3cc(O)ccc3c(=O)c2C)cc1Cl . Return the value. > 100 µM (inactive)

Request body: readout GI50, system SNB-19, query OC1CC(O)O[C@H](c2ccccc2)C1 (stereo not given in full) . Return the value. > 100 µM (inactive)

Request body: readout GI50, system SNB-19, query CN(C)CCn1c(=O)c2ccc3c4c(nn3CCN(C)C)c3ccccc3n(c1=O)c24 . Return the value. 0.313 µM (active)

Request body: readout GI50, system SNB-19, query Nc1nc(O)c2c(n1)NCN(CCCN1CCOCC1)C2 . Return the value. > 100 µM (inactive)
